Measured target: MAGL (Homo sapiens, UniProt Q99685)
Sequence (Q99685 whole entry, species assumed): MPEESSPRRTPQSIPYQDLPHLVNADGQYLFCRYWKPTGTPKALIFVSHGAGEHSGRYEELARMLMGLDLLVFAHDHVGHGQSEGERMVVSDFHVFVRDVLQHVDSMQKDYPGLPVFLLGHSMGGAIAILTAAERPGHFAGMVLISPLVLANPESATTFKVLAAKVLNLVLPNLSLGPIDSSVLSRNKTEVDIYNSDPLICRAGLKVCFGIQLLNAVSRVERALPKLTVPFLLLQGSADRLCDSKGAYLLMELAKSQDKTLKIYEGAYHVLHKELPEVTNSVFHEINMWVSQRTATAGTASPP
Method summary: 2-AG assay: MAGL inhibitory activity by hydrolysis of 2-arachidonoylglycerol to arachidonic acid, followed by mass spectrometry
Type: biochemical
Test parameters: 15 min preincubation, 30 min reaction at RT, 8 μM 2-arachidonoylglycerol
pIC50: −log10 of the molar value.
Property: pIC50

Record excerpt, results attached:
INSERT INTO assay_data (molecule, measured_target, property, observed_result) VALUES
  ('O=C1NC2(CO1)CN(C(=O)N1CC3(CC(CNC4(C(F)(F)F)CC4)C3)C1)C2', 'MAGL (Homo sapiens, UniProt Q99685)', 'pIC50', 9.11),
  ('O=C1NC2(CO1)CN(C(=O)N1CC3(CCC(Cc4ncc(F)cc4F)CC3)C1)C2', 'MAGL (Homo sapiens, UniProt Q99685)', 'pIC50', 9.74);

[A] O=C1NC2(CO1)CN(C(=O)N1CC3(C1)CN(S(=O)(=O)c1cccc(OC(F)(F)F)c1)C3)C2
[B] O=C1NC2(CO1)CN(C(=O)N1CC3(CCC(Cc4ccc(Cl)cn4)CC3)C1)C2
Please tell me which of the two, A or B , has the higher reported pIC50 value. Write down the label attached to your selection. B

###

Measured target: MAGL (Homo sapiens, UniProt Q99685)
Method summary: 2-AG assay: MAGL inhibitory activity by hydrolysis of 2-arachidonoylglycerol to arachidonic acid, followed by mass spectrometry
Format: biochemical
Test parameters: 15 min preincubation, 30 min reaction at RT, 8 μM 2-arachidonoylglycerol
Property: IC50 (nM)

INSERT INTO results (molecule, unit_name, observed_result) VALUES
  ('CC(C)(C)c1ncc(CN2CC3(C2)CN(C(=O)N2CC4(CCC(=O)N4)C2)C3)s1', 'nM', 45.2),
  ('O=C1NC2(CO1)CN(C(=O)N1CC3(CC(NCc4ccc(C(F)(F)F)cc4F)C3)C1)C2', 'nM', 1.08),
  ('O=C1CCC2(CN(C(=O)N3CC4(CN(Cc5nc(C6CC6)ns5)C4)C3)C2)N1', 'nM', 428);

[A] O=C1COCC2(CN(C(=O)N3CC4(CC(Cc5ccc(F)cc5F)C4)C3)C2)N1
[B] N#Cc1ccc(CC2CC3(C2)CN(C(=O)N2CC4(CCC(=O)N4)C2)C3)c(F)c1
[C] N=S(=O)(c1ccc(CC2CC3(C2)CN(C(=O)N2CC4(CCC(=O)N4)C2)C3)cc1)C(F)(F)F (stereo not shown)
Form: Sort by [IC50] Order [ ascending ] Give the labels in the order requested. B, A, C
(B: 0.6 nM, A: 0.97 nM, C: 2.15 nM)

###

Measured target: MAGL (Homo sapiens, UniProt Q99685)
Method summary: 2-AG assay: MAGL inhibitory activity by hydrolysis of 2-arachidonoylglycerol to arachidonic acid, followed by mass spectrometry
Format: biochemical
Test parameters: 15 min preincubation, 30 min reaction at RT, 8 μM 2-arachidonoylglycerol
Property: IC50 (nM)

Record excerpt, results attached:
INSERT INTO assay_data (compound, property, unit_name, observed_result) VALUES
  ('CS(=O)(=O)c1cc(C(F)(F)F)ccc1C1CC2(C1)CN(C(=O)N1CC3(COC(=O)N3)C1)C2 [Example 117]', 'IC50', 'nM', 1.96),
  ('CS(=O)(=O)c1ccc(CC2CCC3(C2)CN(C(=O)N2CC4(COC(=O)N4)C2)C3)cc1 (centres unmarked) [Example 77]', 'IC50', 'nM', 0.91),
  ('CP(C)(=O)c1ccc(CC2CC3(C2)CN(C(=O)N2CC4(CCC(=O)N4)C2)C3)c(F)c1 [Example 336]', 'IC50', 'nM', 146);

[a] O=C1CCC2(CN(C(=O)N3CC4(CCN(Cc5cc(C(F)(F)F)[nH]n5)CC4)C3)C2)N1 [Example 350]
[b] O=C1NCC2(CN(C(=O)N3CC4(CCC(Cc5ccc(OC(F)F)nc5)CC4)C3)C2)N1 [Example 128]
# compare IC50 for a vs b ; return the one with the smaller value Write down the label attached to your selection. b
(b: 51.9 nM, a: 165 nM)
